Source of measurements: ChEMBL document CHEMBL4622849

Assay: Half life in Wistar Han rat at 2 mg/kg, iv or 10 mg/kg, po
Assay type: ADME, organism-based
Conditions: in vivo
ASSAY_METRIC: half-life (h)

[
  {
    "SMILES_REPRESENTATION": "CCC(=O)CCCCC[C@H](NC(=O)[C@H]1CC12CCN(C)CC2)c1ncc(-c2cc3ccccc3nc2OC)[nH]1",
    "UNIT_TAG": "h",
    "MEASURED_RESULT": 6.6
  }
]

1 = CCC(=O)CCCCC[C@H](NC(=O)[C@H]1CC12CCN(CC)CC2)c1ncc(-c2cc3ccccc3nc2OC)o1
2 = CCC(=O)CCCCC[C@H](NC(=O)[C@H]1CC12CCN(C)CC2)c1ncc(-c2cc3ccccc3nc2OC)o1
Thinking about recorded half-life values, which is higher, 1 or 2 ? Indicate your choice by writing its label.
1

###

Test: Cmax in Beagle dog at 2 mg/kg, po
Format: ADME, organism-based, Canis lupus familiaris
Set-up: dose 2 mg/kg, route oral
Conditions: in vivo
ASSAY_METRIC: Cmax (nM)
Numeric only. Scale: nM

If you can, please state the reported Cmax value of CCC(=O)CCCCC[C@H](NC(=O)[C@H]1CC12CCN(C)CC2)c1ncc(-c2cc3ccccc3nc2OC)[nH]1 .
690

###

Experiment: Half life in Wistar Han rat at 2 mg/kg, iv or 5 mg/kg, po
Type: ADME, organism-based
Conditions: in vivo
ASSAY_METRIC: half-life (h)
State the answer as a number, implicitly in h.

For the molecule CCC(=O)CCCCC[C@H](NC(=O)[C@H]1CC12CCN(CC)CC2)c1ncc(-c2cc3ccccc3nc2OC)[nH]1 , what half-life is on record?
3

###

Target: Protein deacetylase HDAC6 (Homo sapiens, UniProt Q9UBN7)
Sequence (Q9UBN7 whole entry): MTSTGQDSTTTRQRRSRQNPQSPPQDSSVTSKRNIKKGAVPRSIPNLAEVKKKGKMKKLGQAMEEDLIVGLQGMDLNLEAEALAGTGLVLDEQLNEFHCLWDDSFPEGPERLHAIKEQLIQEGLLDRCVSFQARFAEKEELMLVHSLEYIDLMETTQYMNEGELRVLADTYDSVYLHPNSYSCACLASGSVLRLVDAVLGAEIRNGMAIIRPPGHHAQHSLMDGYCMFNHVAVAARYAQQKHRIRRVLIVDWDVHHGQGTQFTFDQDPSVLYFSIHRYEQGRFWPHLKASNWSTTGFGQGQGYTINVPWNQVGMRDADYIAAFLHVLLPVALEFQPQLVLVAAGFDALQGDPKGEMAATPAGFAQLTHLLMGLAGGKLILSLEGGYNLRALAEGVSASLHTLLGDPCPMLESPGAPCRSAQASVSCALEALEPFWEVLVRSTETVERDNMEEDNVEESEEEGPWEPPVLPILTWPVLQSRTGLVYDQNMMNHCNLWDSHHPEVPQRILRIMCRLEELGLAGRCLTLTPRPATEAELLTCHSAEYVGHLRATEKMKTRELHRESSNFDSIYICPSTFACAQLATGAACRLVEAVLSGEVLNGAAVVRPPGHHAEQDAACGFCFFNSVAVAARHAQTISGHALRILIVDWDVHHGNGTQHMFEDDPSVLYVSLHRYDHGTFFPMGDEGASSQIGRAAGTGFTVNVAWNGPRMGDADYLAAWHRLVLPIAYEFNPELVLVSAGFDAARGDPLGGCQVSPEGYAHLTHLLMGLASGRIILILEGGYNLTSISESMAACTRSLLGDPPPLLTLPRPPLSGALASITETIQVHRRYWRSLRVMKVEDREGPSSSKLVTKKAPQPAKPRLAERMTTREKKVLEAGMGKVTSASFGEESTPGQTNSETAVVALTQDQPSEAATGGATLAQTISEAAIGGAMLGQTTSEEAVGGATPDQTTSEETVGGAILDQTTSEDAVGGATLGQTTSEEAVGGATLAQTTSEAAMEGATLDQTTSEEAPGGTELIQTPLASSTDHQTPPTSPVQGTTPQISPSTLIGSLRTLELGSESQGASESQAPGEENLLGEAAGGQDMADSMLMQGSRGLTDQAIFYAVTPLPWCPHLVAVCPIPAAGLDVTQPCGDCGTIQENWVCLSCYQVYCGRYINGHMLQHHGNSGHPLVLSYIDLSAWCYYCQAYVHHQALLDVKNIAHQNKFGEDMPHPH
ASSAY_METRIC: IC50 (nM)

[
  {
    "COMPOUND": "CCC(=O)CCCCC[C@H](NC(=O)[C@H]1CC12CCN(C)CC2)c1ncc(-c2cc3ccccc3nc2OC)[nH]1",
    "ASSAY_METRIC": "IC50",
    "UNIT_TAG": "nM",
    "MEASURED_RESULT": 157
  }
]

A = CCC(=O)CCCCC[C@H](NC(=O)[C@@H]1C[C@]12CCN(C)C2)c1ncc(-c2cc3ccccc3nc2OC)[nH]1
B = CCC(=O)CCCCC[C@H](NC(=O)[C@@H]1CC12CCC(N(C)C)CC2)c1ncc(-c2cc3ccccc3nc2OC)[nH]1 (some centres undefined)
C = CCC(=O)CCCCC[C@H](NC(=O)[C@H]1CC12CCN(CC)CC2)c1nnc(-c2cc3ccccc3nc2OC)[nH]1
Order the records so the highest IC50 appears first and the lowest last. List the labels in the requested order.
B, A, C
(B: 759 nM, A: 149 nM, C: 95 nM)

###

System: Human immunodeficiency virus
Experiment: microbe, parasite or virus in culture
Type: functional, organism-based
Details: Human immunodeficiency virus 1, 2C4
Description: Reactivation of HIV latency infected in human 2C4 cells in presence of 0.1 % NHS by luciferase reporter gene assay
ASSAY_METRIC: EC50 (nM)

[
  {
    "MOLECULE": "CCC(=O)CCCCC[C@H](NC(=O)[C@@H]1C[C@]12CCN(C)C2)c1ncc(-c2cc3ccccc3nc2OC)[nH]1",
    "ASSAY_SYSTEM": "Human immunodeficiency virus",
    "MEASURED_RESULT": 261
  }
]

P = CCC(=O)CCCCC[C@H](NC(=O)[C@H]1C[C@@]12CCN(C)C2)c1ncc(-c2cc3ccccc3nc2OC)[nH]1
Q = CCC(=O)CCCCC[C@H](NC(=O)[C@H]1CC12CCN(C(C)C)CC2)c1ncc(-c2cc3ccccc3nc2OC)o1
R = CCC(=O)CCCCC[C@H](NC(=O)[C@@H]1CC12CCCN(C)C2)c1ncc(-c2cc3ccccc3nc2OC)[nH]1 (some centres undefined)
Reorder: EC50, max to min. Your reply should list the labels following the order given in the request.
R, Q, P
(R: 257 nM, Q: 161 nM, P: 73 nM)
